# assay_summary: reversal of MRP1-mediated doxorubicin resistance, pilot screen, H69AR cells, doxorubicin co-treatment (AID 601)
# assay_context: H69AR cells, CellTiter-Glo, 72 h; compound alone cytotoxicity; at 10 µM
For each of the molecules below, state its viability.
Give bare numbers, in %.

See these solved cases before continuing.
>  <molecule>
CC(C)c1ccc(NC(=O)C2CC(=O)N(C(C)C)C2)cc1 (centres undefined)

>  <viability, %>
90.8

$$$$
>  <molecule>
CC1CCCN(C(=O)CN2CCN(C(=O)c3ccco3)CC2)C1 (centres undefined)

>  <viability, %>
93.2

$$$$

Each molecule below has a recorded value; state its viability.
1. CCCCOc1ccc(-c2ncc(C(=O)OCC)c(N)n2)cc1
2. CC(C(=O)O)c1ccc(-c2ccccc2)c(F)c1 (centres undefined)
3. O=C(Nc1nnc(SCC(=O)N2CCCCC2)s1)C1CCCCC1
4. Cc1ccc(S(=O)(=O)N2CCCC(c3nnc4n3-c3ccccc3SC4)C2)cc1 (centres undefined)

90
90.2
101
76.5

###

# assay_summary: HUVEC growth inhibition – cell-based, human, primary screen (AID 575);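 further: 100% = median of untreated cell wells with 0.1% DMSO on each plate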
# assay_context: HUVEC proliferation, CellTiter-Glo luminescence, 72 h; at 10 µM; stronger effect = lower value
measured_attribute: viability (%)
Numbers only, in %.

>  <compound>
CCn1c(SCC(N)=O)nnc1-c1ccc(S(=O)(=O)N2CCN(C)CC2)cc1

>  <measured_attribute>
viability

>  <assay_result>
105

$$$$

Each compound below has a recorded value; state its viability.
1. CCCCSc1nnc([C@H](C)NC(=O)OC(C)(C)C)o1
2. CCOC(=O)NC(=O)CSc1nnc(C)s1
3. CC(C)c1ccc(NC(=O)C2CC(=O)N(C(C)C)C2)cc1 (configuration not stated)
4. CCOC(=O)COc1ccc(S(=O)(=O)N2CCc3ccccc3C2)cc1

1: 102; 2: 115; 3: 89.2; 4: 9.96

Each compound below has a recorded value; state its viability.
1. CC(C)COc1ccc(C(=O)OCCN2CCOCC2)cc1
2. CC1(C)CC(=O)C=C(NCc2ccncc2)C1
3. Nc1nc2c(ncn2COCCO)c(=O)[nH]1

118
113
86.9

Each compound below has a recorded value; state its viability.
1. CCn1nnnc1SCC(=O)Nc1nc(-c2cccs2)cs1
2. COc1cccc(-c2cc(C(F)(F)F)n3nc(N)nc3n2)c1
3. COc1cccc(/C=N/n2c(-c3ccco3)nc3ccccc3c2=O)c1
4. COc1ccccc1NC(=O)C1=C(C)NC(SCC(=O)c2ccc(C)cc2)=C(C#N)C1c1ccco1 (configuration not stated)

1. 83.8
2. 92.3
3. 105
4. 72.5

Each compound below has a recorded value; state its viability.
1. CCOC(=O)CC(=O)c1cc(OC)c(OC)c(OC)c1
2. CCN(CC(=O)NC1CCS(=O)(=O)C1)C(=O)C(c1ccccc1)c1ccccc1 (configuration not stated)
3. CCNC(=O)CC1C(=O)N(c2ccccc2)C(=O)N1CCC(C)C (configuration not stated)
4. COc1ccccc1C(=O)Nc1c2c(nn1-c1cccc(C)c1C)CS(=O)(=O)C2
5. CCn1c(SCC(=O)Nc2ccc3c(c2)OCO3)nnc1-c1ccccc1O

[97.1, 102, 95.9, 49.2, 92]

###

# assay_summary: reversal of MRP1-mediated doxorubicin resistance, pilot screen, H69AR cells, doxorubicin co-treatment (AID 601)
# assay_context: H69AR cells, CellTiter-Glo, 72 h; compound alone cytotoxicity; at 10 µM
For each of the compounds below, state its viability.
One number for each entry, in %.

See these solved cases before continuing.
>  <compound>
COC(=O)Cn1cnc2sc(C)c(S(=O)(=O)N3CCC(C)CC3)c2c1=O

>  <unit_abbrev>
%

>  <viability>
91.3

$$$$
>  <compound>
COc1ccccc1C1C(C#N)=C(N)Oc2cc(C)n(Cc3ccccn3)c(=O)c21 (stereo unspecified)

>  <unit_abbrev>
%

>  <viability>
90.2

$$$$
>  <compound>
CC(=O)N1C(=O)c2cccc3cccc(c23)C(=O)N1C(C)=O

>  <unit_abbrev>
%

>  <viability>
91.8

$$$$

Each compound below has a recorded value; state its viability.
1. COc1ccc(Cl)cc1NC(=O)CSc1nncn1-c1cccnc1
2. CO/C([O-])=N/c1c[n+](-c2ccc(C)cc2)no1
3. COc1ccc(NC(=O)CSc2nc3c(c(=O)n2-c2ccc(F)cc2)SCC3)c(OC)c1

[88.3, 90.5, 90.7]

###

# assay_summary: HUVEC growth inhibition – cell-based, human, primary screen (AID 575);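 further: 100% = median of untreated cell wells with 0.1% DMSO on each plate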
# assay_context: HUVEC proliferation, CellTiter-Glo luminescence, 72 h; at 10 µM; stronger effect = lower value
measured_attribute: viability (%)
One number for each entry, in %.

>  <molecule>
O=C(CN1CCC(n2nnc3ccccc32)CC1)Nc1ccc2c(c1)CCC2

>  <viability, %>
92

$$$$
>  <molecule>
O=C(CCN1C(=O)c2ccccc2C1=O)N1CCN(C(=O)c2ccccc2)CC1

>  <viability, %>
108

$$$$
>  <molecule>
Cc1ccc(S(=O)(=O)NCC(c2cccnc2)N(C)C)cc1 (stereo unspecified)

>  <viability, %>
109

$$$$

Each molecule below has a recorded value; state its viability.
1. Cc1c(C(=O)NC2CCCc3ccccc32)oc2ccc(S(=O)(=O)N3CCOCC3)cc12 (stereo unspecified)
2. CCOC(=O)C1C(=O)OC(C)(C)C1C(C)C(=O)c1ccc(OC)cc1 (stereo unspecified)
3. COc1cccc(OCCn2ccnc2)c1

1. 84.9
2. 112
3. 89.6

###

# assay_summary: reversal of MRP1-mediated doxorubicin resistance, pilot screen, H69AR cells, doxorubicin co-treatment (AID 601)
# assay_context: H69AR cells, CellTiter-Glo, 72 h; compound alone cytotoxicity; at 10 µM
For each of the compounds below, state its viability.
One number for each entry, in %.

Each compound below has a recorded value; state its viability.
1. Cc1nc(NC(=O)C23CCC(C)(C(=O)O2)C3(C)C)sc1C (stereo not drawn)
2. COc1cccc2sc(NC(=O)c3ccc(S(=O)(=O)N4CCOCC4)cc3)nc12
3. CC(=O)Oc1ccc(C(c2ccc(OC(C)=O)cc2)c2ccccn2)cc1
4. CC(=O)CC(=O)Nc1ccccc1NC(C)=O
5. CCOCCCNC(=O)C1CCC(CNS(=O)(=O)c2cccc3nsnc23)CC1 (stereo not drawn)

1. 99.2
2. 86.7
3. 94.9
4. 101
5. 88.3

Each compound below has a recorded value; state its viability.
1. CC(C)=CCC(C)(C)C1OCCN1C(=O)c1ccccc1 (stereo not drawn)
2. COc1cc2c(cc1NC(=O)CSc1nnc(Cc3cccs3)n1C)oc1ccccc12
3. CCCCn1nnnc1NCc1cccs1
4. COc1ccc(-c2nnn(CC(=O)c3ccc4c(c3)OCCO4)n2)cc1OC
5. Cc1cc(C(=O)NCc2cccnc2)no1
6. CCCC(=O)Nc1ccc(C(=O)O)cc1NC(=O)CCC
7. CC(=O)OC[C@H]1O[C@@H](n2ncc(=O)[nH]c2=O)[C@H](OC(C)=O)[C@@H]1OC(C)=O

[98, 47.8, 99.2, 81.5, 99.2, 96.3, 91.3]

Each compound below has a recorded value; state its viability.
1. Cn1ncc2c(Nc3ccccc3Br)ncnc21
2. Cc1sc2nc(SCC(=O)Nc3c(C)n(C)n(-c4ccccc4)c3=O)n(C)c(=O)c2c1C
3. COCCOC(=O)c1cc(C(=O)c2cc(F)ccc2O)coc1=N
4. O=C1c2ccccc2NC(c2ccco2)N1O (stereo not drawn)
5. CC1=C(/C=C/C(C)=C/C=C/C(C)=C/C(=O)O)C(C)(C)CCC1
6. Cc1cccc2cc(C#N)c(SCCN3CCCCC3)nc12

1: 106; 2: 97.3; 3: 91.1; 4: 96.5; 5: 104; 6: 68.2

###

# assay_summary: reversal of MRP1-mediated doxorubicin resistance, pilot screen, H69AR cells, doxorubicin co-treatment (AID 601)
# assay_context: H69AR cells + 2 uM doxorubicin, CellTiter-Glo, 72 h; measured here: viability with 2 uM doxorubicin; at 10 µM; stronger effect = lower value
measured_attribute: viability

>  <compound>
CCOC(=O)Cn1nnc(-c2ccc(SC)cc2)n1

>  <measured_attribute>
viability

>  <assay_result>
92.3%

$$$$
>  <compound>
COc1cccc(-c2cc(C(=O)N3CCCc4ccccc43)no2)c1

>  <measured_attribute>
viability

>  <assay_result>
87.4%

$$$$
>  <compound>
O=C(O)c1ccc(COc2ccc(Cl)cc2)o1

>  <measured_attribute>
viability

>  <assay_result>
88.1%

$$$$

Each compound below has a recorded value; state its viability.
1. COc1ccccc1N1CCN(c2cc(N3CCCC3)nc(C)n2)CC1
2. CC(C(=O)NC(=O)NC1CCCCC1)N1CCN(c2ccccn2)CC1 (configuration not stated)
3. COc1cccc(Nc2c(F)c(F)c(F)c(F)c2C(=O)O)c1
4. CCC(C)NCC(O)COCc1ccc(Cl)cc1 (configuration not stated)

91.6%
88.9%
90.5%
88.2%

The measurements presented in this section are drawn from PubChem BioAssay.
